Tested on: human G12D mutant KRAS-positive pancreatic cancer line AsPC-1
Test: Non-anchorage-dependent cell growth inhibition, spheroid 3D cell culture (Test Example 3)
Type: cell-based
Details: Homo sapiens, ASPC1, 144 h, AsPC-1 spheroid 3D culture, 6 days, CellTiter Glo 2.0
pIC50: −log10 of the molar value.
Label scheme for pIC50: lower than 8 is False, 8 and above is True.

## Input Determine whether measured pIC50 meets or exceeds 8 for CO[C@@H](C)COc1cc(O[C@H]2CCNC2)c2cc(C3CC3)c(-c3c(C)c(F)cc4[nH]ncc34)c(OCc3ccc(-c4cn([C@H](C(=O)N5C[C@H](O)C[C@H]5C(=O)N[C@@H](CO)c5ccc(-c6scnc6C)cc5)C(C)C)nn4)cc3)c2n1
## Output True

## Input Check the entry Cc1ncsc1-c1ccc([C@H](CO)NC(=O)[C@@H]2C[C@@H](O)CN2C(=O)[C@H](C(C)C)n2cc(-c3ccc(COc4c(-c5c(C)c(F)cc6[nH]ncc56)c(C5CC5)cc5c(N(C)[C@H]6CCNC6)nc(OCCC(F)(F)F)nc45)cc3)nn2)cc1 (atropisomer, axis not shown) : does pIC50 equal or exceed 8?
## Output False

Measured values drawn from patent US20250206751A1 for this set.
